- test_system: ATP-dependent translocase ABCB1 (Homo sapiens) (UniProt P08183)
- Sequence (P08183 whole entry, looked up): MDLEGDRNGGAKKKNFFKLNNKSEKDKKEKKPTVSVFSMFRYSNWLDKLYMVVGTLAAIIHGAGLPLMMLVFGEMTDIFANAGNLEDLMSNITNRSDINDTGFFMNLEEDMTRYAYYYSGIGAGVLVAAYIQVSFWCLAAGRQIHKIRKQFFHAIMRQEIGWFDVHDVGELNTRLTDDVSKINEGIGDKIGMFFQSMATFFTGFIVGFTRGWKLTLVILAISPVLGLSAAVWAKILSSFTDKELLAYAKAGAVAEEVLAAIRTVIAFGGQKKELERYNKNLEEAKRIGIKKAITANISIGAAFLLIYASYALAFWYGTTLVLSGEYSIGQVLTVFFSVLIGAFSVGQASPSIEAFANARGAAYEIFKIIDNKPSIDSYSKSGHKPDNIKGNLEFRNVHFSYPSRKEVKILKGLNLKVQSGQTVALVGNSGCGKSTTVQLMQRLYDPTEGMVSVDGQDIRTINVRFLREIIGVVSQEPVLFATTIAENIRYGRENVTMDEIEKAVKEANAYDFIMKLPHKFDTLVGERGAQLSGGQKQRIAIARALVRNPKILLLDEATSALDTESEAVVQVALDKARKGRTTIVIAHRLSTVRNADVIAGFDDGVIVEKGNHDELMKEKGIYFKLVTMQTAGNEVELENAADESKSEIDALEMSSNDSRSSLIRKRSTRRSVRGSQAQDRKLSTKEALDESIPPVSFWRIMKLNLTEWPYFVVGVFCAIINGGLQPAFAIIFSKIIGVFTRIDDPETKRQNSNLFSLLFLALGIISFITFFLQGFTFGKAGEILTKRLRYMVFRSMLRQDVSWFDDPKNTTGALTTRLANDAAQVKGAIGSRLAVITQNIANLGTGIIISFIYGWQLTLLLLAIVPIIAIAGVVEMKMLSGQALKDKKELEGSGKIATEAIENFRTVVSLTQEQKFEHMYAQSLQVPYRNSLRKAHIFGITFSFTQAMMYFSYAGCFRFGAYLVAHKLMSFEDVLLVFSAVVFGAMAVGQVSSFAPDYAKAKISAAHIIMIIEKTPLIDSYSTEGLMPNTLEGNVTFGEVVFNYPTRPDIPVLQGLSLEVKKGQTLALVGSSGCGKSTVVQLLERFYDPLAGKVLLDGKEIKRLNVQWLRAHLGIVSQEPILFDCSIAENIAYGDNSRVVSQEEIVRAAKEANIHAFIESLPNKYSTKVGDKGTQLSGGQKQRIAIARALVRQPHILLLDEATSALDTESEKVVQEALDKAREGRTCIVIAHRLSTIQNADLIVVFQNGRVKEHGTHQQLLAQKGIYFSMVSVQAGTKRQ
- assay_name: qHTS for characterization and localization of zebrafish homologs of the human ABCB1 multidrug transporter: P-gp overexpressing MDR-19 cells
- condition_context: MDR-19 cells overexpressing P-gp, CellTiter-Glo luminescence viability, 72 h; series mostly up to 46.1 µM
Inconclusive results are not listed. The source made the active and inactive calls. The call rests on the fitted dose curve; in most records, active means well fitted inhibition curve with a large enough effect; inconclusive means small, poorly fitted or top-dose-only effect; inactive means flat fitted curve, though single readings scatter.
parameter: Potency

Illustrative cases are given below, each with its answer.
[Q] Fill in: Potency of O=C(NC1CC1)c1cccc(-c2ccc3c(NC(=O)C4CC4)n[nH]c3c2)c1 is ___
[A] inactive

[Q] Fill in: Potency of C/C=C1/NC(=O)C2CSSCCC=CC(CC(=O)NC(C(C)C)C(=O)N2)OC(=O)C(C(C)C)NC1=O (stereo not given) is ___
[A] 7.43 µM (active)

[Q] Fill in: Potency of NC(=O)Nc1cc(-c2cccc(F)c2)sc1C(=O)N[C@H]1CCCNC1 is ___
[A] 8.33 µM (active)

[Q] Fill in: Potency of CCN(CC)Cc1ccc(C(=O)N(CCc2ccccc2OC)[C@@H]2CCNC2)cc1 is ___
[A] inactive

***
[Q] Fill in: Potency of CC(C)C[C@H](NC(=O)[C@@H](NC(=O)c1cccc(-c2ccccc2)n1)[C@@H](C)O)B(O)O is ___
[A] 0.372 µM (active)
